Measured ELISA binding hIL-12RB2/control, listed per entry for reference.
- SUBJECT OF TEST: T1, biotinylated recombinant human IL-12Rβ2 (human, UniProt Q99665 24-622, random biotinylated)
- T1 construct: Recombinant protein produced in-house, biotinylated; also called hIL-12RB2; human IL-12RB2
- T1 sequence: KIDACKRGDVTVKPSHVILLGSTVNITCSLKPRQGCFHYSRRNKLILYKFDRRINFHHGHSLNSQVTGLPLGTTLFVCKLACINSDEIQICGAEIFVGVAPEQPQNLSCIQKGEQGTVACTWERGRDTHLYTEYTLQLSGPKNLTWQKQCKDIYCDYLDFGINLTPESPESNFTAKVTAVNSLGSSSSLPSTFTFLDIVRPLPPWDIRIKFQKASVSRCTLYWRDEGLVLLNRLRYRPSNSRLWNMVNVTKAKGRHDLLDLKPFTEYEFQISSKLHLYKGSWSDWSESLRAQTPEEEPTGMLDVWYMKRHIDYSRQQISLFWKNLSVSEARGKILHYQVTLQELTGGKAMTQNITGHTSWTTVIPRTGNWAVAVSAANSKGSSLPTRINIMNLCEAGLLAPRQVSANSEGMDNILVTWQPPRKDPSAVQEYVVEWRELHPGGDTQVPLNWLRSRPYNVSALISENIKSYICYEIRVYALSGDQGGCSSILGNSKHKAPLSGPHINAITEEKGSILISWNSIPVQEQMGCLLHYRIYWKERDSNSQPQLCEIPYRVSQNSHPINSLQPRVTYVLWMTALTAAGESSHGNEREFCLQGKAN
- ASSAY METHOD TEXT: ELISA, periplasmic extract on biotinylated hIL-12Rβ2, signal over control wells
Number in ratio, nothing else.

Known results for binders:
anti-IL-12Rβ2 VHH clone 20389 (VHH, not shown: small tags and cut ends, tested as periplasmic extract; also called 3CRH73) VHH: QVQLQESGGGLVRAGGSLRLSCAASGHTFSNYVMGWFRQAPGKEREFVAAISWGGSNTYYADSVKGRFTISRDNAKNTVYLQMNSLKVEDTAVYYCAADRRFEGWNYYSMDYWGKGTQVTVSS = 6.45
anti-IL-12Rβ2 VHH clone 21063 (VHH, not shown: small tags and cut ends, tested as periplasmic extract; also called 3CRHM133) VHH: QVQLQESGGGSVQAGGSLRLSCAVSGRPVSDYAMGWFRQAPGKEREFVAALSASDTTVYPNSVKGRITISRDNAKNAVDLQMNALKPEDTAVYYCAMGPIGTFQGLARQNEYHYWGQGTQVTVSS = 3.46
anti-IL-12Rβ2 VHH clone 20541 (VHH, not shown: small tags and cut ends, tested as periplasmic extract; also called 3CAMS9) VHH: QVQLQESGGGLVQAGGSLRLSCAASGRTFSSYGMGWFRQAPGKEREFVAAISRDARITDYADSVKGRFTISRDNAKNTAYLEMNSLNPEDTAVYSCAAAYTYSGSHYVTARSSDYHSWGQGTQVTVSS = 0.915
anti-IL-12Rβ2 VHH clone 20506 (VHH, not shown: small tags and cut ends, tested as periplasmic extract; also called 3CAM6) VHH: QVQLQESGGGLVQVGGSLRLSCAPSGRTFSTYAMGWFRQALGKEREVVATISWSGGRIYYTDSVKGRFTISRDNAKNTAYLQMNSLRPDDADVYYCATRGTDYGAWEYWGQGTQVTVSS = 0.97
anti-IL-12Rβ2 VHH clone 20488 (VHH, not shown: small tags and cut ends, tested as periplasmic extract; also called 2CAM48) VHH: QVQLQESGGGLMQAGDSLRLSCAASGRTFSSYGMGWFRQAPGKEREFVAAISRGARITDYADSVKGRFTISRDNAKNTAYLQMNSLNPEDTAVYFCAAAYTYSGSHYVTARSSDYHSWGQGTQVTVSS = 0.973

Moving on to the next binder.
Per the records, this binder ( anti-IL-12Rβ2 VHH clone 20533 (VHH, not shown: small tags and cut ends, tested as periplasmic extract; also called 2CAMS26) VHH: QVQLQESGGGLVQAGGSLTLSCTASGRTFSSYTTGWFRQAPGKEREFVAGISSGGSWIGDITSYADSVKGRFTISRDNAKNMIYLQMNSLKPDDTGVYYCAAASYGTRYYVGSTANEYTTWGQGTQVTVSS ) has ELISA binding hIL-12RB2/control equal to 0.994
